pIC50: −log10 of the molar value.
We begin with pIC50 values for UniProtKB P00748, as collected from the published literature.

Result for `Nc1nccc2cc(CNC(=O)c3cnc(OCc4ccccn4)c(Cl)c3)ccc12` , tested on UniProtKB P00748, pIC50: 4.40 to 5.00

Readout pIC50 for Nc1c2c(nn1C(=O)[C@@H]1CCNc3c(Cl)cccc31)COCC2 (single isomer, unassigned) , test system UniProtKB P00748, was 4.80

Record Nc1nn(C(=O)[C@@H]2CCNc3ccc(F)cc32)c2c1C[C@@H](O)CC2 (single isomer, unassigned) / UniProtKB P00748, pIC50 recorded as < 4.05

Summary: `CC(C)N1CCN(CCCNc2ncc(C(=O)NCc3ccc4c(N)nccc4c3)cc2Cl)CC1` , UniProtKB P00748, pIC50 = 5.00 to 5.52

Fill in: UniProtKB P00748 pIC50 for CC(C)c1cc2c(C(=O)n3nc4c(c3N)CCCC4)cccc2[nH]1 (single isomer, unassigned) = 6.40

Form field pIC50 for item `CC(C)N(CCNCc1sc(C(=O)NCc2ccc3c(N)nccc3c2)cc1Cl)C(C)C` on UniProtKB P00748: 5.00 to 5.52

Summary line: `Cc1nsc(C(=O)NCc2ccc3c(N)nccc3c2)c1NCC1CCNCC1` , UniProtKB P00748, reported pIC50 = 4.40 to 5.00

The observed pIC50 for `CC(=O)N1CCN(CCNCc2sc(C(=O)NCc3ccc4c(N)nccc4c3)cc2Cl)CC1` when tested with UniProtKB P00748 stands at 4.40 to 5.00

The reported pIC50 value, UniProtKB P00748, for `Nc1nccc2cc(CNC(=O)c3cc(Cl)cnc3NCc3ccccc3)ccc12` reads 4.40 to 5.00

Recorded pIC50 for `COc1ccc(C#N)c(CNC(=O)c2cn(Cc3ccc(Cn4ccccc4=O)cc3)nc2N(C)C)c1F` on UniProtKB P00748 was < 4.40

Considering `Nc1nccc2cc(CNC(=O)c3cnc(Oc4cccc(N5CCCC5=O)c4)c(Cl)c3)ccc12` , its pIC50 with UniProtKB P00748 was recorded as 4.40 to 5.00

The reported UniProtKB P00748 pIC50 of CN1CCc2nn(C(=O)C3CCCc4[nH]c(Cl)cc43)c(N)c2C1 (stereo not shown) is 6.46

---

We begin with IC50 values for Human Factor XIIa (Homo sapiens, UniProt P00748), as collected from the published literature.

molecule | experimental-system | IC50
C[C@H]1N=C(N2CCN(C(=O)[C@@H](CCCCNS(C)(=O)=O)NC3CCCCC3)[C@H](C(=O)NCc3cccs3)C2)O[C@H]1c1ccccc1 | Human Factor XIIa (Homo sapiens, UniProt P00748) | 0.0142 µM

Bench note, Human Factor XIIa (Homo sapiens, UniProt P00748): entry `CC(C)CCNCc1sc(C(=O)NCc2ccc3c(N)nccc3c2)cc1Cl` , its IC50 = 10 to 40 µM

Item: CC1(C)N=C(N2CCN(C(=O)[C@H](N)CCCCN3CCCCC3)[C@H](C(=O)NCc3cc4cnccc4s3)C2)OC1c1ccccc1 (stereo partly shown) | System: Human Factor XIIa (Homo sapiens, UniProt P00748) | IC50: 0.0544 µM

// returns IC50 for CCN1CCC(C(=O)n2nc(N)c3c2CCCC3)c2ccccc21 (single isomer, unassigned) with Human Factor XIIa (Homo sapiens, UniProt P00748); value = > 100 µM

Tested on Human Factor XIIa (Homo sapiens, UniProt P00748): `Nc1nccc2cc(CNC(=O)c3cc(Cl)nn3CC3CCNCC3)ccc12` . Observed IC50: 3 to 10 µM

Form: item `CCc1ccccc1C(=O)n1nc(N)c2c1CCCC2` ; test system Human Factor XIIa (Homo sapiens, UniProt P00748); IC50: 25 µM

Entry `Nc1nccc2cc(CNC(=O)c3cc(Cl)c(COc4ccc(N5CCNCC5)cc4)s3)ccc12` , Human Factor XIIa (Homo sapiens, UniProt P00748) data, IC50 value: 1 to 3 µM

Assay Human Factor XIIa (Homo sapiens, UniProt P00748), sample `CN1CCC(Nc2ncc(C(=O)NCc3ccc4c(N)nccc4c3)cc2Cl)CC1` , IC50 read: 10 to 40 µM

// assay Human Factor XIIa (Homo sapiens, UniProt P00748), entry `Nc1nccc2cc(CNC(=O)c3cnc(OCc4ccncc4)c(Cl)c3)ccc12` , IC50 value = 10 to 40 µM

// assay Human Factor XIIa (Homo sapiens, UniProt P00748), entry `COc1ccc(Oc2ncc(C(=O)NCc3ccc4c(N)nccc4c3)cc2Cl)cc1` , IC50 value = 10 to 40 µM

Kindly note: Human Factor XIIa (Homo sapiens, UniProt P00748), `COCc1nn(Cc2ccc(Cn3cc(C)cn3)cc2)cc1C(=O)NCc1nccc(OC)c1F` , IC50 value reported: > 40 µM

Fill in: Human Factor XIIa (Homo sapiens, UniProt P00748) IC50 for `Cc1c(CNC(=O)c2nccnc2NCC2CCN(C)CC2)ccc2c(N)nccc12` = 0.3 to 1 µM

Record `CN(C(=O)C(C)(C)C)c1ccc(Oc2ncc(Cl)cc2C(=O)NCc2ccc3c(N)nccc3c2)cc1` / Human Factor XIIa (Homo sapiens, UniProt P00748), IC50 recorded as 10 to 40 µM

Field IC50 (system: Human Factor XIIa (Homo sapiens, UniProt P00748)) for entry `COCc1nn(Cc2ccc(Cn3ccccc3=O)cc2)cc1C(=O)NCc1cc(OC)ccc1C#N` = > 40 µM

Item: CCc1cscc1C(=O)n1nc2c(c1N)CCCC2 (single isomer, unassigned) | System: Human Factor XIIa (Homo sapiens, UniProt P00748) | IC50: 0.2 µM

The recorded IC50 with Human Factor XIIa (Homo sapiens, UniProt P00748) for `COc1ccc(C#N)c(CNC(=O)c2cn(Cc3ccc(Cn4ccccc4=O)cc3)nc2N)c1F` was > 4 µM

---

Several reports have described pIC50 for UniProt:P00748; a selection of those results is presented here.
pIC50: −log10 of the molar value.

// below: answered molecules
molecule | pIC50
CS(=O)(=O)c1ccc(Oc2ncc(C(=O)NCc3ccc4c(N)nccc4c3)cc2Cl)cc1 | 4.40 to 5.00
C[C@@H]1N=C(N2CCN(C(=O)[C@@H](CCCCNS(C)(=O)=O)NC3CCCCC3)[C@H](C(=O)NCc3cccs3)C2)O[C@H]1c1cccc(Br)c1 | 7.61

Observed pIC50 on UniProt:P00748, entry CS(=O)(=O)N1CCc2c(N)nn(C(=O)C3CCNc4ccc(-c5ccncc5)cc43)c2C1 (stereo not shown) , equals 4.82

Entry `CN(C)CCOCc1sc(C(=O)NCc2ccc3c(N)nccc3c2)cc1Cl` : pIC50 on UniProt:P00748 = 5.00 to 5.52

---

# IC50 against UniProt P00748, merged from multiple literature sources

See these solved cases before continuing.
compound | result
Nc1nccc2cc(CNC(=O)c3cnc(NCCn4ccnc4)c(Cl)c3)ccc12 | 10 to 40 µM
CNS(=O)(=O)N1CCc2c(nn(C(=O)C3CCNc4ccccc43)c2N)C1 (stereo not drawn) | 2 µM

Proceed to the following item.
Field IC50 (UniProt P00748), entry `CC(C)NC(=O)N(C)c1ccc(OCc2sc(C(=O)NCc3ccc4c(N)nccc4c3)cc2Cl)cc1` : 10 to 40 µM

---

Listed below are compounds with IC50 for Human Factor XIIa (Homo sapiens, UniProt P00748), each taken from published literature.

compound | IC50
CN1CCC(CNc2nccnc2C(=O)Nc2cccc3c(N)nccc23)CC1 | 1 to 3 µM

IC50 reading for `CN(C)c1ccc(Nc2ncc(Cl)cc2C(=O)NCc2ccc3c(N)nccc3c2)cc1` : 10 to 40 µM

According to the records, this compound `C[C@@H]1N=C(N2CCN(C(=O)[C@H](N)CCCCN3CCCCC3)[C@H](C(=O)NCc3cccc(Cl)c3)C2)O[C@H]1c1cccc(Br)c1` displays IC50 of 0.0361 µM

Entry under test: `Nc1nccc2cc(CNC(=O)c3cc(Cl)c(CN4CCN(c5cnccn5)CC4)s3)ccc12` . Its IC50 was 10 to 40 µM

---

Collected literature values of IC50 measured for Human Factor XIIa (Homo sapiens, UniProt P00748).
property-measured: IC50 (µM)

Sample records with IC50:
compound | units-symbol | IC50
CN(C)CCCC[C@H](C(=O)N1CCN(C2=NC(C)(C)C(c3ccccc3)O2)C[C@H]1C(=O)NCc1ccc(CN)c(F)c1)N(C)C (stereo partly drawn) | µM | 0.0127
Cc1cccc2c1NCC[C@@H]2C(=O)n1nc2c(c1N)CCN(CCO)C2 (single isomer, unassigned) | µM | 0.04
Nc1c2c(nn1C(=O)C1CCNc3ccc(F)cc31)CN(S(=O)(=O)C(F)F)CC2 (stereo not drawn) | µM | 0.13

A: Cc1cc2c(C(=O)n3nc(N)c4c3CN(Cc3ccccc3)CC4)cccc2[nH]1
B: Cc1[nH]c2ccccc2c1C(=O)n1nc(N)c2c1CCCC2
I'm curious whether A or B has the smaller IC50 number. Which is it? Give the label under which the chosen entry appears.
B
(B: 17 µM, A: 50 µM)

A: Nc1c2c(nn1C(=O)C1CCNc3cc(Cl)ccc31)CCCC2 (stereo not drawn)
B: Nc1c2c(nn1C(=O)[C@H]1CCNc3ccc(F)cc31)CC[C@@H](O)C2 (single isomer, unassigned)
Select one: A or B . Criterion: greater recorded IC50. Indicate your choice by writing its label.
A

I: CCS(=O)(=O)N1CCc2c(N)nn(C(=O)C3CCNc4ccccc43)c2C1 (stereo not drawn)
II: CCn1c(C)cc2c(C(=O)n3nc4c(c3N)CCCC4)cccc21
Lower value of IC50 belongs to which: I or II ? Pick one; state its label.
II
(II: 0.04 µM, I: 32 µM)
